assay: Pharmacokinetics and absolute bioavailability after intraduodenal administration in rats; conditions: male, Sprague-Dawley, rat, plasma, 1.5 mg, AUClast, intraduodenal, 1.5 mg/animal, 50 µL vehicle glycerol
Property label: AUC(0-t) (ng·h/mL)

1) CC(=O)N[C@H]1[C@H]([C@H](O)[C@H](O)CO)OC(C(=O)O)=C[C@@H]1N=C(N)N
754

* * *

test: Pharmacokinetics and absolute bioavailability after intraduodenal administration in rats; conditions: male, Sprague-Dawley, rat, plasma, 1.5 mg, Cmax, Figure 4 experiment, intraduodenal, 1.5 mg zanamivir, 25 µL Capmul MCM L8
Property label: Cmax

1) CC(=O)N[C@H]1[C@H]([C@H](O)[C@H](O)CO)OC(C(=O)O)=C[C@@H]1N=C(N)N
1650 ng/mL

* * *

assay: Pharmacokinetics and absolute bioavailability after intraduodenal administration in rats; conditions: male, Sprague-Dawley, rat, plasma, 1.5 mg, tmax, intraduodenal, 1.5 mg/animal in PBS, Capmul MCM L8 given 2 hr prior
Property label: Tmax

1. CC(=O)N[C@H]1[C@H]([C@H](O)[C@H](O)CO)OC(C(=O)O)=C[C@@H]1N=C(N)N
1 h

* * *

assay: Pharmacokinetics and absolute bioavailability after intraduodenal administration in rats; details: male, Sprague-Dawley, rat, plasma, 1.5 mg, Cmax, Figure 4 experiment, intraduodenal, 1.5 mg zanamivir, 50 µL Capmul MCM L8
Property label: Cmax (ng/mL)

1) CC(=O)N[C@H]1[C@H]([C@H](O)[C@H](O)CO)OC(C(=O)O)=C[C@@H]1N=C(N)N
2120

* * *

assay: Pharmacokinetics and absolute bioavailability after intraduodenal administration in rats; settings: male, Sprague-Dawley, rat, plasma, 1.5 mg, Cmax, intraduodenal, 1.5 mg/animal in PBS, Capmul MCM L8 given 2 hr prior
Property label: Cmax (ng/mL)

1) CC(=O)N[C@H]1[C@H]([C@H](O)[C@H](O)CO)OC(C(=O)O)=C[C@@H]1N=C(N)N
48.6

* * *

Assay: Pharmacokinetics and absolute bioavailability after intraduodenal administration in rats
Conditions: male, Sprague-Dawley, rat, plasma, 1.5 mg, AUC∞, intraduodenal, 1.5 mg/animal, 50 µL vehicle Capmul MCM L8
Source text: Male Sprague-Dawley rats (Hilltop Labs, Scottdale, PA), 3 animals per treatment group, 250–350 grams in weight, were fitted with a jugular vein cannula (JVC). Animals intended for intraduodenal dosing were also fitted with one or more intraduodenal cannula (IDC) and those intended for intravenous dosing were fitted with a second JVC. Food was withheld from the animals for a minimum of twelve hours prior to test article administration and was returned approximately four hours post-dose. […]
Property label: AUC(0-inf) (ng·h/mL)

1) CC(=O)N[C@H]1[C@H]([C@H](O)[C@H](O)CO)OC(C(=O)O)=C[C@@H]1N=C(N)N
4000

* * *

assay: Pharmacokinetics and absolute bioavailability after intraduodenal administration in rats; conditions: male, Sprague-Dawley, rat, plasma, other: intraduodenal, 1.5 mg, Bioavailability, absolute, vs 1.5 mg intravenous; intraduodenal, 1.5 mg/animal, 50 µL vehicle PBS
Property label: bioavailability (%)

1) CC(=O)N[C@H]1[C@H]([C@H](O)[C@H](O)CO)OC(C(=O)O)=C[C@@H]1N=C(N)N [Zanamivir, zanamivir]
1.59

* * *

assay: Pharmacokinetics and absolute bioavailability after intraduodenal administration in rats; settings: male, Sprague-Dawley, rat, plasma, 1.5 mg, t1/2, intraduodenal, 1.5 mg/animal, 50 µL vehicle PBS
Property label: half-life (min)

1. CC(=O)N[C@H]1[C@H]([C@H](O)[C@H](O)CO)OC(C(=O)O)=C[C@@H]1N=C(N)N
49.8

* * *

test: Pharmacokinetics and absolute bioavailability after intraduodenal administration in rats; conditions: male, Sprague-Dawley, rat, plasma, 0.75 mg, tmax, Figure 5 experiment, intraduodenal, 0.75 mg zanamivir, 50 µL Capmul MCM L8
Property label: Tmax

1. CC(=O)N[C@H]1[C@H]([C@H](O)[C@H](O)CO)OC(C(=O)O)=C[C@@H]1N=C(N)N [Zanamivir, zanamivir]
4.8 min

* * *

test: Pharmacokinetics and absolute bioavailability after intraduodenal administration in rats; conditions: male, Sprague-Dawley, rat, plasma, 1.5 mg, AUClast, intraduodenal, 1.5 mg/animal, 50 µL vehicle PBS
Property label: AUC(0-t)

1) CC(=O)N[C@H]1[C@H]([C@H](O)[C@H](O)CO)OC(C(=O)O)=C[C@@H]1N=C(N)N [Zanamivir, zanamivir]
162 ng·h/mL

* * *

assay: Pharmacokinetics and absolute bioavailability after intraduodenal administration in rats; conditions: male, Sprague-Dawley, rat, plasma, 1.5 mg, tmax, intraduodenal, 1.5 mg/animal, 50 µL vehicle glycerol
Property label: Tmax (min)

1) CC(=O)N[C@H]1[C@H]([C@H](O)[C@H](O)CO)OC(C(=O)O)=C[C@@H]1N=C(N)N [Zanamivir, zanamivir]
30

* * *

experiment: Pharmacokinetics and absolute bioavailability after intraduodenal administration in rats; settings: male, Sprague-Dawley, rat, plasma, 1.5 mg, Cmax, intraduodenal, 1.5 mg/animal in PBS, glycerol given 2 hr prior
Property label: Cmax (ng/mL)

1) CC(=O)N[C@H]1[C@H]([C@H](O)[C@H](O)CO)OC(C(=O)O)=C[C@@H]1N=C(N)N [Zanamivir, zanamivir]
77.4

* * *

assay: Pharmacokinetics and absolute bioavailability after intraduodenal administration in rats; settings: male, Sprague-Dawley, rat, plasma, 1.5 mg, AUC∞, intraduodenal, 1.5 mg/animal in PBS, Capmul MCM L8 given 2 hr prior
Property label: AUC(0-inf) (ng·h/mL)

1. CC(=O)N[C@H]1[C@H]([C@H](O)[C@H](O)CO)OC(C(=O)O)=C[C@@H]1N=C(N)N
69.8

* * *

assay: Pharmacokinetics and absolute bioavailability after intraduodenal administration in rats; conditions: male, Sprague-Dawley, rat, plasma, 1.5 mg, t1/2, intraduodenal, 1.5 mg/animal, 50 µL vehicle glycerol
Property label: half-life (min)

1) CC(=O)N[C@H]1[C@H]([C@H](O)[C@H](O)CO)OC(C(=O)O)=C[C@@H]1N=C(N)N [Zanamivir, zanamivir]
17.4

* * *

assay: Pharmacokinetics and absolute bioavailability after intraduodenal administration in rats; details: male, Sprague-Dawley, rat, plasma, other: intraduodenal, 1.5 mg, Bioavailability, absolute, vs 1.5 mg intravenous; intraduodenal, 1.5 mg/animal, 50 µL vehicle Capmul MCM L8
Property label: bioavailability (%)

1. CC(=O)N[C@H]1[C@H]([C@H](O)[C@H](O)CO)OC(C(=O)O)=C[C@@H]1N=C(N)N
37.7

* * *

assay: Pharmacokinetics and absolute bioavailability after intraduodenal administration in rats; settings: male, Sprague-Dawley, rat, plasma, other: intraduodenal, 1.5 mg, Bioavailability, absolute, vs 1.5 mg intravenous; intraduodenal, 1.5 mg/animal in PBS, Capmul MCM L8 given 2 hr prior
Property label: bioavailability (%)

1. CC(=O)N[C@H]1[C@H]([C@H](O)[C@H](O)CO)OC(C(=O)O)=C[C@@H]1N=C(N)N [Zanamivir, zanamivir]
0.66

* * *

test: Pharmacokinetics and absolute bioavailability after intraduodenal administration in rats; conditions: male, Sprague-Dawley, rat, plasma, 1.5 mg, AUClast, intraduodenal, 1.5 mg/animal in PBS, glycerol given 2 hr prior
Property label: AUC(0-t) (ng·h/mL)

1) CC(=O)N[C@H]1[C@H]([C@H](O)[C@H](O)CO)OC(C(=O)O)=C[C@@H]1N=C(N)N [Zanamivir, zanamivir]
112

* * *

assay: Pharmacokinetics and absolute bioavailability after intraduodenal administration in rats; details: male, Sprague-Dawley, rat, plasma, other: intraduodenal, 1.5 mg, Bioavailability, absolute, vs 1.5 mg intravenous; intraduodenal, 1.5 mg/animal in PBS, glycerol given 2 hr prior
Property label: bioavailability (%)

1. CC(=O)N[C@H]1[C@H]([C@H](O)[C@H](O)CO)OC(C(=O)O)=C[C@@H]1N=C(N)N
1.1

* * *

test: Pharmacokinetics and absolute bioavailability after intraduodenal administration in rats; settings: male, Sprague-Dawley, rat, plasma, 1.5 mg, AUClast, intraduodenal, 1.5 mg/animal in PBS, Capmul MCM L8 given 2 hr prior
Property label: AUC(0-t) (ng·h/mL)

1. CC(=O)N[C@H]1[C@H]([C@H](O)[C@H](O)CO)OC(C(=O)O)=C[C@@H]1N=C(N)N [Zanamivir, zanamivir]
66.1

* * *

assay: Pharmacokinetics and absolute bioavailability after intraduodenal administration in rats; details: male, Sprague-Dawley, rat, plasma, 1.5 mg/animal, Cmax, intraduodenal, 50 µL vehicle Capmul MCM L8
Property label: Cmax

1. CC(=O)N[C@H]1[C@H]([C@H](O)[C@H](O)CO)OC(C(=O)O)=C[C@@H]1N=C(N)N [Zanamivir, zanamivir]
> 7200 ng/mL

* * *

assay: Pharmacokinetics and absolute bioavailability after intraduodenal administration in rats; settings: male, Sprague-Dawley, rat, plasma, 1.5 mg, tmax, intraduodenal, 1.5 mg zanamivir mixed with Capmul MCM L8
Property label: Tmax (min)

1. CC(=O)N[C@H]1[C@H]([C@H](O)[C@H](O)CO)OC(C(=O)O)=C[C@@H]1N=C(N)N
5

* * *

experiment: Pharmacokinetics and absolute bioavailability after intraduodenal administration in rats; settings: male, Sprague-Dawley, rat, plasma, 1.5 mg, AUC∞, intraduodenal, 1.5 mg/animal, 50 µL vehicle PBS
Property label: AUC(0-inf) (ng·h/mL)

1) CC(=O)N[C@H]1[C@H]([C@H](O)[C@H](O)CO)OC(C(=O)O)=C[C@@H]1N=C(N)N
244
